system: HTT mRNA; assay: RT-qPCR splicing assay, HTT canonical junction (CJ) and alternative junction (AJ) mRNA; assay type: cell-based, human; conditions: Homo sapiens, increase in HTT alternative junction (AJ) mRNA, RT-qPCR; read-out: HTT AJ AC50
observation-type: AC50

In the examples that follow, each entry is paired with its recorded AC50.
[[record]]
smiles_text = "Cc1cn2cc(-c3cc(F)c4c(=O)n([C@H]5CNC[C@@H]5F)ccc4c3)cc(F)c2n1"
assayed_target = "HTT mRNA"
observation_type = "AC50"
result = "> 10 µM"

[[record]]
smiles_text = "CCN1CC[C@@H](n2ncc3nc(-c4cc(C)c5nc(C)cn5n4)ccc3c2=O)CC12CC2"
assayed_target = "HTT mRNA"
observation_type = "AC50"
result = "< 0.1 µM"

[[record]]
smiles_text = "Cc1cn2nc(-c3cc(N)c4c(=O)n([C@H]5CCNC5)ccc4c3)cc(C)c2n1"
assayed_target = "HTT mRNA"
observation_type = "AC50"
result = "1 to 10 µM"

[[record]]
smiles_text = "Cc1cn2nc(-c3ccc4c(=O)n([C@H]5CCN(C)[C@H](C)C5)ncc4c3)cc(C)c2n1"
assayed_target = "HTT mRNA"
observation_type = "AC50"
result = "< 0.1 µM"

[[record]]
smiles_text = "Cc1cc(-c2cnc3c(=O)n(C4CCNCC4)cnc3c2)cc2cn(C)nc12"
assayed_target = "HTT mRNA"
observation_type = "AC50"
result = "1 to 10 µM"


Sample Cc1cn2nc(-c3ccn4c(=O)c(C5CCNCC5)ccc4c3)cc(C)c2n1 ; AC50 observed: < 0.1 µM

Sample Cc1cn2nc(-c3ccc4c(=O)n(C5CCN(C)CC5)ncc4c3)cc(C)c2n1 ; AC50 observed: < 0.1 µM

Sample Cc1cn2nc(-c3ccc4c(=O)n(C5CCNCC5)ccc4c3)cc(Oc3cccnc3)c2n1 ; AC50 observed: < 0.1 µM

Sample CN1CCC(N(C)c2ccc3ncn(-c4cc(F)c5nn(C)cc5c4)c(=O)c3c2)CC1 ; AC50 observed: > 10 µM

Sample Cc1cn2cc(-c3ncc4c(=O)n([C@@H]5CCNC(C)(C)C5)ccc4n3)cc(F)c2n1 ; AC50 observed: 0.1 to 1 µM
